B1: TPR 5TU (parent)
chain: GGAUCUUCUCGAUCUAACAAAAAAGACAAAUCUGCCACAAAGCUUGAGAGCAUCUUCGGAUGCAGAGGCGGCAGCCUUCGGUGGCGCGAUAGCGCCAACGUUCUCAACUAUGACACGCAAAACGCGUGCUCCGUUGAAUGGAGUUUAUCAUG

# Variants of: B1
# assay_comment: polymerase ribozyme fitness, log enrichment relative to wild type (log ratio); higher = more active; in vitro selection for triplet polymerase activity
Variants at the floor of the assay were thinned out.
property_measured: polymerase ribozyme fitness (log ratio)

1. A20U G59A G88A C95G U151A :: ≤ -4.2
2. G25C C27U U45C G71U U82A G83A G92U :: ≤ -4.2
3. G58A U90A C125G :: ≤ -4.2
4. C8U U15C A17U A40G G42C U61G C75U C93U C129U G133U :: ≤ -4.2
5. C38U A47U C54A A73G U78A A91U C114A A115U C116U G136C U146G :: ≤ -4.2

Lab note: next variant to report on.
Can you look up the measured polymerase ribozyme fitness (log ratio) of U56G G136A for me? 0.0437
